tested on: 653999-131-R-J2-PDC complex spheroids, growth inhibition; assay: Anticancer human tumor 653999-131-R-J2-PDC patient-derived lung adenocarcinoma cell line growth inhibition [RAS]; settings: curve of first compound; second compound 0.1 µM;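 note: spheroids exposed to the agents for seven days before the readout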
What pIC50 was measured for each of the following?
One number for each entry, as −log10 of the molar value.

Check out these entries, answers already filled in.
compound="Nc1ccn(C2OC(CO)C(O)C2(F)F)c(=O)n1 (stereo unspecified) + C#Cc1c(F)ccc2cc(O)cc(-c3ncc4c(N5CC6CCC(C5)N6)nc(OCC56CCCN5CC(F)C6)nc4c3F)c12" test_result=7.43
compound="CC(Nc1ccc2c(c1)OCCn1cc(N3C(=O)OCC3C(F)F)nc1-2)C(N)=O (stereo unspecified) + C=CC(=O)N1CCN(c2nc(OCC3CCCN3C)nc3c(F)c(-c4nc(N)cc(C)c4C(F)(F)F)c(Cl)cc23)C(C)C1" test_result=5.94
compound="CC(C)n1nc(-c2ccc3oc(N)nc3c2)c2c(N)ncnc21 + C=CC(=O)N1CCN(c2nc(OCC3CCCN3C)nc3c(F)c(-c4nc(N)cc(C)c4C(F)(F)F)c(Cl)cc23)C(C)C1" test_result=7.91
compound="CCC(CC)c1cc(NC2CCC(N)C2)n2nccc2n1 (stereo unspecified) + C=CC(=O)N1CCN(c2nc(OCC3CCCN3C)nc3c(F)c(-c4nc(N)cc(C)c4C(F)(F)F)c(Cl)cc23)C(C)C1" test_result=5.67
compound="CCc1c2c(nc3ccc(O)cc13)-c1cc3c(c(=O)n1C2)COC(=O)[C@]3(O)CC + C=CC(=O)N1CCN(c2nc(OCC3CCCN3C)nc3c(F)c(-c4nc(N)cc(C)c4C(F)(F)F)c(Cl)cc23)C(C)C1" test_result=8.23
compound="CCC(CC)c1cc(NC2CCC(N)C2)n2nccc2n1 (stereo unspecified) + C#Cc1c(F)ccc2cc(O)cc(-c3ncc4c(N5CC6CCC(C5)N6)nc(OCC56CCCN5CC(F)C6)nc4c3F)c12" test_result=5.74
compound="CC(C)n1nc(-c2ccc3oc(N)nc3c2)c2c(N)ncnc21 + C#Cc1c(F)ccc2cc(O)cc(-c3ncc4c(N5CC6CCC(C5)N6)nc(OCC56CCCN5CC(F)C6)nc4c3F)c12" test_result=8.07
compound="CC1(O)CCCC1n1c(=O)c(C(F)F)cc2cnc(NC3CCN(S(C)(=O)=O)CC3)nc21 (stereo unspecified) + C=CC(=O)N1CCN(c2nc(OCC3CCCN3C)nc3c(F)c(-c4nc(N)cc(C)c4C(F)(F)F)c(Cl)cc23)C(C)C1" test_result=5.25
compound="CC1(O)CCCC1n1c(=O)c(C(F)F)cc2cnc(NC3CCN(S(C)(=O)=O)CC3)nc21 (stereo unspecified) + C#Cc1c(F)ccc2cc(O)cc(-c3ncc4c(N5CC6CCC(C5)N6)nc(OCC56CCCN5CC(F)C6)nc4c3F)c12" test_result=5.40
compound="NC1c2ccccc2OC12CCN(c1cnc3c(N4CCCc5ncccc54)n[nH]c3n1)CC2 (stereo unspecified) + C#Cc1c(F)ccc2cc(O)cc(-c3ncc4c(N5CC6CCC(C5)N6)nc(OCC56CCCN5CC(F)C6)nc4c3F)c12" test_result=5.86

Below is a list of compounds. For each, state its recorded pIC50.
1. CC(C)NCC(C(=O)N1CCN(c2ncnc3c2C(C)CC3O)CC1)c1ccc(Cl)cc1 (stereo unspecified) + C=CC(=O)N1CCN(c2nc(OCC3CCCN3C)nc3c(F)c(-c4nc(N)cc(C)c4C(F)(F)F)c(Cl)cc23)C(C)C1
2. O=C(c1ccc(F)c(F)c1Nc1ccc(I)cc1F)N1CC(O)([C@@H]2CCCCN2)C1 + C=CC(=O)N1CCN(c2nc(OCC3CCCN3C)nc3c(F)c(-c4nc(N)cc(C)c4C(F)(F)F)c(Cl)cc23)C(C)C1

1. 5.81
2. 7.20
